src = patent US20240327534A1

- TARGET DESC: T1, human BCMA on BCMA expressing cell lines (human, UniProt Q02223 1-184)
- T1 sequence: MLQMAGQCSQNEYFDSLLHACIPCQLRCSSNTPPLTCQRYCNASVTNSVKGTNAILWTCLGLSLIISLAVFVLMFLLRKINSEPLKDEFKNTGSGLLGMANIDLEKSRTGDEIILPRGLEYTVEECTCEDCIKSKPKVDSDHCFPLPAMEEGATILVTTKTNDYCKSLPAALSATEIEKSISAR
- EXPERIMENT: cell-based or functional assay
We begin with a simple list: items and their reported TDCC EC50 (EJM cells).
Please give a number only; it is taken to be in nM.

QUERY: I'd like to know its TDCC EC50 (EJM cells). The binder in question is BCMA targeting trispecific protein 01F10 (other, trispecific; not shown: the C-terminal 6xHis tag follows those missing domains and is left out) VHH: EVQLVESGGGLVQPGRSLTLSCAASSNIFSISPMGWYRQAPGKQRELVAAIHGESTLYADSVKGRFTISRDNAKNSIYLQMNSLRPEDTALYYCNKVPWGDYHPRNVTWGQGTQVTVSS
RESULT: 0.00744

Further cases:
QUERY: I'd like to know its TDCC EC50 (EJM cells). The binder in question is BCMA targeting trispecific protein 01B07 (other, not shown: large carriers; small tags and cut ends, trispecific) VHH: EVQLVESGGGLVQPGRSLTLSCAASTNIFSRSPMGWYRQAPGKQRELVAAIHGNSTLYADSVKGRFTISRDNAKNSIYLQMNSLRPEDTALYYCNKVPWGIYHPRNVYWGQGTQVTVSS
RESULT: 0.174
